Where do the numbers come from? From the supplement of paper PMC10307832.

# Test system: NCI-H460
# Assay: relative viability (nuclei count vs DMSO), 5 days (fraction); higher = more cells survive
# Test conditions: first compound 0.8 µM
Readout name: relative viability

* Nc1cccc2c1CN(C1CCC(=O)NC1=O)C2=O (stereo unspecified) [Lenalidomide] + Nc1nc2[nH]cc(CCc3ccc(C(=O)N[C@@H](CCC(=O)O)C(=O)O)cc3)c2c(=O)[nH]1 [Pemetrexed] (partner 0.2 µM) | 0.068
* Nc1cccc2c1CN(C1CCC(=O)NC1=O)C2=O (stereo unspecified) [Lenalidomide] + CC(=O)Nc1cccc(-n2c(=O)n(C3CC3)c(=O)c3c(Nc4ccc(I)cc4F)n(C)c(=O)c(C)c32)c1 [Trametinib] (partner 0.02 µM) | 0.13
* Nc1cccc2c1CN(C1CCC(=O)NC1=O)C2=O (stereo unspecified) [Lenalidomide] + CC(C)C[C@H](NC(=O)[C@H](Cc1ccccc1)NC(=O)c1cnccn1)B(O)O [Bortezomib] (partner 0.002 µM) | 1.1
* Nc1cccc2c1CN(C1CCC(=O)NC1=O)C2=O (stereo unspecified) [Lenalidomide] + Cc1nc(NC(=O)N2CCC[C@H]2C(N)=O)sc1-c1ccnc(C(C)(C)C(F)(F)F)c1 [Alpelisib] (partner 2 µM) | 0.492
* Nc1cccc2c1CN(C1CCC(=O)NC1=O)C2=O (stereo unspecified) [Lenalidomide] + CC(=O)c1c(C)c2cnc(Nc3ccc(N4CCNCC4)cn3)nc2n(C2CCCC2)c1=O [Palbociclib] (partner 0.5 µM) | 0.0987
* Nc1cccc2c1CN(C1CCC(=O)NC1=O)C2=O (stereo unspecified) [Lenalidomide] + Cc1cc(Nc2cc(N3CCN(C)CC3)nc(Sc3ccc(NC(=O)C4CC4)cc3)n2)n[nH]1 [Tozasertib] (partner 0.1 µM) | 0.396

###

Form field: relative viability (one value per entry).
# Test system: HCC-366
# Assay: relative viability (nuclei count vs DMSO), 5 days (fraction); higher = more cells survive
# Test conditions: first compound 2 µM
Readout name: relative viability

- Cc1csc(=NC2CCCCC2)n1/N=C/c1ccc(O)c(O)c1O [MIM1] + O=C(CCCCCCC(=O)Nc1ccccc1)NO [Vorinostat] (partner 1 µM): 0.243
- Cc1csc(=NC2CCCCC2)n1/N=C/c1ccc(O)c(O)c1O [MIM1] + CC1(C)CCC(c2ccc(Cl)cc2)=C(CN2CCN(c3ccc(C(=O)NS(=O)(=O)c4ccc(N[C@H](CCN5CCOCC5)CSc5ccccc5)c(S(=O)(=O)C(F)(F)F)c4)cc3)CC2)C1 [Navitoclax] (partner 0.5 µM): 0.809
- Cc1csc(=NC2CCCCC2)n1/N=C/c1ccc(O)c(O)c1O [MIM1] + Cc1nc(Nc2ncc(C(=O)Nc3c(C)cccc3Cl)s2)cc(N2CCN(CCO)CC2)n1 [Dasatinib] (partner 0.075 µM): 0.65
- CN1CCN(CCOc2cc(OC3CCOCC3)c3c(Nc4c(Cl)ccc5c4OCO5)ncnc3c2)CC1 [Saracatinib] + CS(=O)(=O)N1CCN(Cc2cc3nc(-c4cccc5[nH]ncc45)nc(N4CCOCC4)c3s2)CC1 [Pictilisib] (partner 1 µM): 0.103

###

# Tested on: 201T
# Assay: relative viability (nuclei count vs DMSO), 5 days (fraction); higher = more cells survive
# Test conditions: first compound 0.1 µM
Readout name: relative viability

* Cc1cn(-c2cc(NC(=O)c3ccc(C)c(Nc4nccc(-c5cccnc5)n4)c3)cc(C(F)(F)F)c2)cn1 [Nilotinib] + CC(=O)c1c(C)c2cnc(Nc3ccc(N4CCNCC4)cn3)nc2n(C2CCCC2)c1=O [Palbociclib] (partner 0.5 µM) | 0.351
* Cc1cn(-c2cc(NC(=O)c3ccc(C)c(Nc4nccc(-c5cccnc5)n4)c3)cc(C(F)(F)F)c2)cn1 [Nilotinib] + CC1(C)CCC(c2ccc(Cl)cc2)=C(CN2CCN(c3ccc(C(=O)NS(=O)(=O)c4ccc(N[C@H](CCN5CCOCC5)CSc5ccccc5)c(S(=O)(=O)C(F)(F)F)c4)cc3)CC2)C1 [Navitoclax] (partner 0.5 µM) | 1.21
* Cc1cn(-c2cc(NC(=O)c3ccc(C)c(Nc4nccc(-c5cccnc5)n4)c3)cc(C(F)(F)F)c2)cn1 [Nilotinib] + CC(=O)Nc1cccc(-n2c(=O)n(C3CC3)c(=O)c3c(Nc4ccc(I)cc4F)n(C)c(=O)c(C)c32)c1 [Trametinib] (partner 0.02 µM) | 0.728
* Cc1cn(-c2cc(NC(=O)c3ccc(C)c(Nc4nccc(-c5cccnc5)n4)c3)cc(C(F)(F)F)c2)cn1 [Nilotinib] + O=C(CCCCCCC(=O)Nc1ccccc1)NO [Vorinostat] (partner 1 µM) | 0.28
* Cc1cn(-c2cc(NC(=O)c3ccc(C)c(Nc4nccc(-c5cccnc5)n4)c3)cc(C(F)(F)F)c2)cn1 [Nilotinib] + C[C@@H](Oc1cc(-c2cnn(C3CCNCC3)c2)cnc1N)c1c(Cl)ccc(F)c1Cl [Crizotinib] (partner 1 µM) | 1.07

###

Catalogue of molecules with associated relative viability
# Test system: NCI-H441
# Assay: relative viability (nuclei count vs DMSO), 5 days (fraction); higher = more cells survive
# Test conditions: first compound 0.06325 µM
Readout name: relative viability

- CCNC(=O)c1noc(-c2cc(C(C)C)c(O)cc2O)c1-c1ccc(CN2CCOCC2)cc1 [Luminespib] + O=C(c1cc(Cc2n[nH]c(=O)c3ccccc23)ccc1F)N1CCN(C(=O)C2CC2)CC1 [Olaparib] (partner 8 µM): 0.119
- CCNC(=O)c1noc(-c2cc(C(C)C)c(O)cc2O)c1-c1ccc(CN2CCOCC2)cc1 [Luminespib] + O=C(CCCCCCC(=O)Nc1ccccc1)NO [Vorinostat] (partner 1 µM): 0.233
- CCNC(=O)c1noc(-c2cc(C(C)C)c(O)cc2O)c1-c1ccc(CN2CCOCC2)cc1 [Luminespib] + CC(C)C[C@H](NC(=O)[C@H](Cc1ccccc1)NC(=O)c1cnccn1)B(O)O [Bortezomib] (partner 0.002 µM): 0.127
- CCNC(=O)c1noc(-c2cc(C(C)C)c(O)cc2O)c1-c1ccc(CN2CCOCC2)cc1 [Luminespib] + COc1cc2c(Oc3ccc(NC(=O)C4(C(=O)Nc5ccc(F)cc5)CC4)cc3F)ccnc2cc1OCCCN1CCOCC1 [Foretinib] (partner 0.25 µM): 0.196

###

# Tested on: COR-L23
# Assay: relative viability (nuclei count vs DMSO), 5 days (fraction); higher = more cells survive
# Test conditions: first compound 0.8 µM
Readout name: relative viability

- Nc1cccc2c1CN(C1CCC(=O)NC1=O)C2=O (centres undefined) [Lenalidomide] + COc1cc2c(Oc3ccc(NC(=O)C4(C(=O)Nc5ccc(F)cc5)CC4)cc3F)ccnc2cc1OCCCN1CCOCC1 [Foretinib] (partner 0.25 µM): 0.998
- Nc1cccc2c1CN(C1CCC(=O)NC1=O)C2=O (centres undefined) [Lenalidomide] + CC(=O)c1c(C)c2cnc(Nc3ccc(N4CCNCC4)cn3)nc2n(C2CCCC2)c1=O [Palbociclib] (partner 0.5 µM): 0.34
- Nc1cccc2c1CN(C1CCC(=O)NC1=O)C2=O (centres undefined) [Lenalidomide] + CS(=O)(=O)CCNCc1ccc(-c2ccc3ncnc(Nc4ccc(OCc5cccc(F)c5)c(Cl)c4)c3c2)o1 [Lapatinib] (partner 2 µM): 0.935
- Nc1cccc2c1CN(C1CCC(=O)NC1=O)C2=O (centres undefined) [Lenalidomide] + C[C@]1(O)C[C@@H](c2nc(-c3ccc4ccc(-c5ccccc5)nc4c3)c3c(N)nccn32)C1 [Linsitinib] (partner 1 µM): 1.12

###

# Tested on: COR-L23
# Assay: relative viability (nuclei count vs DMSO), 5 days (fraction); higher = more cells survive
# Test conditions: first compound 0.03162 µM
Examples of compounds with documented relative viability follow.
Readout name: relative viability

• Cc1cn(-c2cc(NC(=O)c3ccc(C)c(Nc4nccc(-c5cccnc5)n4)c3)cc(C(F)(F)F)c2)cn1 [Nilotinib] + CC(C)C[C@H](NC(=O)[C@H](Cc1ccccc1)NC(=O)c1cnccn1)B(O)O [Bortezomib] (partner 0.002 µM) = 0.858
• Cc1cn(-c2cc(NC(=O)c3ccc(C)c(Nc4nccc(-c5cccnc5)n4)c3)cc(C(F)(F)F)c2)cn1 [Nilotinib] + CS(=O)(=O)N1CCN(Cc2cc3nc(-c4cccc5[nH]ncc45)nc(N4CCOCC4)c3s2)CC1 [Pictilisib] (partner 1 µM) = 0.901

###

# Test system: 201T
# Assay: relative viability (nuclei count vs DMSO), 5 days (fraction); higher = more cells survive
# Test conditions: first compound 2 µM
Readout name: relative viability

• CN1CCN(CCOc2cc(OC3CCOCC3)c3c(Nc4c(Cl)ccc5c4OCO5)ncnc3c2)CC1 [Saracatinib] + N=C(N)NC(=N)NCCc1ccccc1 [Phenformin] (partner 250 µM) = 0.369
• Cc1csc(=NC2CCCCC2)n1/N=C/c1ccc(O)c(O)c1O [MIM1] + Cc1cc(Nc2cc(N3CCN(C)CC3)nc(Sc3ccc(NC(=O)C4CC4)cc3)n2)n[nH]1 [Tozasertib] (partner 0.1 µM) = 0.896
• CN1CCN(CCOc2cc(OC3CCOCC3)c3c(Nc4c(Cl)ccc5c4OCO5)ncnc3c2)CC1 [Saracatinib] + CS(=O)(=O)N1CCN(Cc2cc3nc(-c4cccc5[nH]ncc45)nc(N4CCOCC4)c3s2)CC1 [Pictilisib] (partner 1 µM) = 0.554
• Cc1csc(=NC2CCCCC2)n1/N=C/c1ccc(O)c(O)c1O [MIM1] + CC1(C)CCC(c2ccc(Cl)cc2)=C(CN2CCN(c3ccc(C(=O)NS(=O)(=O)c4ccc(N[C@H](CCN5CCOCC5)CSc5ccccc5)c(S(=O)(=O)C(F)(F)F)c4)cc3)CC2)C1 [Navitoclax] (partner 0.5 µM) = 1.24
• CN1CCN(CCOc2cc(OC3CCOCC3)c3c(Nc4c(Cl)ccc5c4OCO5)ncnc3c2)CC1 [Saracatinib] + COc1cccc2cc(-c3nc([C@H]4CC[C@H](C(=O)O)CC4)n4ncnc(N)c34)[nH]c12 [OSI-027] (partner 0.5 µM) = 0.445
• Cc1csc(=NC2CCCCC2)n1/N=C/c1ccc(O)c(O)c1O [MIM1] + CC(C)C[C@H](NC(=O)[C@H](Cc1ccccc1)NC(=O)c1cnccn1)B(O)O [Bortezomib] (partner 0.002 µM) = 1.08
• CN1CCN(CCOc2cc(OC3CCOCC3)c3c(Nc4c(Cl)ccc5c4OCO5)ncnc3c2)CC1 [Saracatinib] + CC1(C)CCC(c2ccc(Cl)cc2)=C(CN2CCN(c3ccc(C(=O)NS(=O)(=O)c4ccc(N[C@H](CCN5CCOCC5)CSc5ccccc5)c(S(=O)(=O)C(F)(F)F)c4)cc3)CC2)C1 [Navitoclax] (partner 0.5 µM) = 1.1
• CN1CCN(CCOc2cc(OC3CCOCC3)c3c(Nc4c(Cl)ccc5c4OCO5)ncnc3c2)CC1 [Saracatinib] + Cc1nc(NC(=O)N2CCC[C@H]2C(N)=O)sc1-c1ccnc(C(C)(C)C(F)(F)F)c1 [Alpelisib] (partner 2 µM) = 0.772
• Cc1csc(=NC2CCCCC2)n1/N=C/c1ccc(O)c(O)c1O [MIM1] + CC(=O)Nc1cccc(-n2c(=O)n(C3CC3)c(=O)c3c(Nc4ccc(I)cc4F)n(C)c(=O)c(C)c32)c1 [Trametinib] (partner 0.02 µM) = 0.736
